# SYSTEM_TESTED: UniProt:O43613
# ASSAY_METHOD_TEXT: hOX1R FLIPR Ca2+ flux assay
# Type: cell-based
# CONDITION_SET: CHO cells expressing orexin-1 receptor; agonist 70 pM Ala-6,12 orexin-A; read-out: hOX1R FLIPR IC50
pIC50: −log10 of the molar value.
Threshold rule: pIC50 greater than or equal to 7 is y; below that, n.

Look over these answered cases.
Cc1oc(C[C@H]2CCCCN2C(=O)c2ccccc2C2CCC2)nc1C(C)(C)O | n
Cc1oc(C[C@H]2CCCCN2C(=O)c2nccnc2N2CCCC2)nc1C(C)(C)O | n
Cc1oc(C[C@H]2CCCCN2C(=O)c2cccnc2-n2cccn2)nc1C(C)(C)O | y

Does the reported pIC50 for `Cc1oc(C[C@H]2CCCCN2C(=O)c2ccccc2OCC(F)(F)F)nc1C(C)(C)O` fall at or above the 7 mark?
n

pIC50 >= 7 for Cc1oc(C[C@H]2CCCCN2C(=O)c2ccccc2C2CC2(F)F)nc1C(C)(C)O (some centres unmarked) ?
n

For this compound, is measured pIC50 7 or higher? `Cc1oc(C[C@H]2CCCCN2C(=O)c2ccc(F)cc2-n2nccn2)nc1C(C)(C)O`
y

Hello, I need to know if `Cc1oc(C[C@H]2CCCCN2C(=O)c2ncccc2-c2ccccc2)nc1C(C)(C)O` has measured pIC50 not below 7. Thanks!
n

---

# SYSTEM_TESTED: hOX1R (Homo sapiens, UniProt O43613)
# ASSAY_METHOD_TEXT: hOX1R FLIPR Ca2+ flux assay
# Format: cell-based
# CONDITION_SET: CHO cells expressing orexin-1 receptor; agonist 70 pM Ala-6,12 orexin-A; read-out: hOX1R FLIPR IC50
I'd be grateful if you could share measured IC50 for these entries.
Numbers only, in µM.

Below are worked cases with known answers.
Cc1oc(C[C@H]2CCCCN2C(=O)c2cccnc2OC(C)C)nc1C(C)(C)O | 0.223
Cc1oc(C[C@H]2CCCCN2C(=O)c2ccccc2OCC(F)F)nc1C(C)(C)O | 0.69
CCOc1ncccc1C(=O)N1CCCC[C@@H]1Cc1nc(C(C)(C)O)c(C)o1 | 0.152
Cc1oc(C[C@H]2CCCCN2C(=O)c2cccnc2OCC(F)(F)F)nc1C(C)(C)O | 0.162

Please find the next molecule below.
// IC50 value for `CCOc1ccccc1C(=O)N1CCCC[C@@H]1Cc1nc(C(C)(C)O)c(C)o1` : 0.256

---

Please provide measured IC50 for the entries that follow.
# SYSTEM_TESTED: human orexin-2 receptor (Homo sapiens (Human), UniProt O43614)
# Sequence (O43614 whole entry): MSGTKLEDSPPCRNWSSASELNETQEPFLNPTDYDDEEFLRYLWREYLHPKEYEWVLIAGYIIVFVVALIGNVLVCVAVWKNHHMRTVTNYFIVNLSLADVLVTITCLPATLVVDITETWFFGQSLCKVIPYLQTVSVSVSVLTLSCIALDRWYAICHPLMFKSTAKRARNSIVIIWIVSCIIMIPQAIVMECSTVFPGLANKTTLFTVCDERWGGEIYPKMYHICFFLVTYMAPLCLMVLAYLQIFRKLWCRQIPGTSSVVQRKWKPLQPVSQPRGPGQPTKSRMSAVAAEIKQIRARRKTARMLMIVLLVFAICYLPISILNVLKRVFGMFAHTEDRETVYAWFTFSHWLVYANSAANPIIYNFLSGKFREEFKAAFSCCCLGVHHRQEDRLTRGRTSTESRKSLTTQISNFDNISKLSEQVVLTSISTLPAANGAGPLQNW
# ASSAY_METHOD_TEXT: hOX2R FLIPR Ca2+ flux assay
# CONDITION_SET: CHO cells expressing human orexin-2 receptor; agonist 70 pM Ala-6,12 orexin-A
Give bare numbers, in µM.

Reference set, count: 4
Cc1oc(C[C@H]2CCCCN2C(=O)c2ccccc2C2CC2)nc1C(C)(C)O [Example 3] | 0.017
Cc1oc(C[C@H]2CCCCN2C(=O)c2cccnc2OCC(F)F)nc1C(C)(C)O [Example 16] | 0.049
COc1ccc(C(=O)N2CCCC[C@@H]2Cc2nc(C(C)(C)O)c(C)o2)c(C2CC2)n1 [Example 19] | 0.503
Cc1oc(C[C@H]2CCCCN2C(=O)c2ccccc2-n2nccn2)nc1C(C)(C)O [Example 1] | 0.014

For this compound ( Cc1oc(C[C@H]2CCCCN2C(=O)c2cccnc2OCC(F)(F)F)nc1C(C)(C)O [Example 5] ), measured IC50 is 0.019
